# system_under_test: T1, Boc-Glu(OBzl)-Ala-Arg-MCA
# T1 chain: EAR
experimental_readout: kcat (s⁻¹)
Please state the figure in s⁻¹; there is no need to write the unit.

Hello, please tell me recorded kcat for this one: Bovine EP serine protease (Novagen) (protein) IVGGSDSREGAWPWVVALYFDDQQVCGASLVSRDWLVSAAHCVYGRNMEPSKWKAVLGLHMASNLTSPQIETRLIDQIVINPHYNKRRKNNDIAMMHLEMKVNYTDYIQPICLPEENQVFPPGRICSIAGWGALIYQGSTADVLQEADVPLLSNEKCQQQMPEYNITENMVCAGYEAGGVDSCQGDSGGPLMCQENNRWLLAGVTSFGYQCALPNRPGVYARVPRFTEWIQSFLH
12.3

Hello, please tell me recorded kcat for this one: Medaka EP-1 serine protease domain mutant T105E (protein) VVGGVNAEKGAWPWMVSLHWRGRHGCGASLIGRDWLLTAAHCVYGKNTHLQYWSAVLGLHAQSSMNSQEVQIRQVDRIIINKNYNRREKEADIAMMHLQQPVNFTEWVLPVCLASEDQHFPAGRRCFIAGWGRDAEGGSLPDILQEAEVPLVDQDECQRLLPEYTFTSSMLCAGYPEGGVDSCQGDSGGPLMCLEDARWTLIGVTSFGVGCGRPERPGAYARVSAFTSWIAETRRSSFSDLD
0.183

Hello, please tell me recorded kcat for this one: Bovine EP serine protease (New England Biolabs) (protein) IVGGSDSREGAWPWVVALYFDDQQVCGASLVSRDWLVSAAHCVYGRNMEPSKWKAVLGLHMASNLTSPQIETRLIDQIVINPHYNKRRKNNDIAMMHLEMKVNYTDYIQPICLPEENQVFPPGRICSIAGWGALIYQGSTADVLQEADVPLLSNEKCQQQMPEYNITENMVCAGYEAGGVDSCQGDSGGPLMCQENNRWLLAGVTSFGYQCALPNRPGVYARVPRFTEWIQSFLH
9.5

Hello, please tell me recorded kcat for this one: Medaka EP-1 serine protease domain (wild-type) (protein) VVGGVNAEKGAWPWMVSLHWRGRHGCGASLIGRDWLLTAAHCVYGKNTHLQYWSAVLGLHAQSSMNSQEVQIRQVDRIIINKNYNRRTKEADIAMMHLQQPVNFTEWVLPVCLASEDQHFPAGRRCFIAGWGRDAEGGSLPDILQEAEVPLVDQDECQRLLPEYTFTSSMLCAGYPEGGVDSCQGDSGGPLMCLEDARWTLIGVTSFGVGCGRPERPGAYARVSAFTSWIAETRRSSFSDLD
0.112

Hello, please tell me recorded kcat for this one: Medaka EP-1 serine protease domain mutant P193E (protein) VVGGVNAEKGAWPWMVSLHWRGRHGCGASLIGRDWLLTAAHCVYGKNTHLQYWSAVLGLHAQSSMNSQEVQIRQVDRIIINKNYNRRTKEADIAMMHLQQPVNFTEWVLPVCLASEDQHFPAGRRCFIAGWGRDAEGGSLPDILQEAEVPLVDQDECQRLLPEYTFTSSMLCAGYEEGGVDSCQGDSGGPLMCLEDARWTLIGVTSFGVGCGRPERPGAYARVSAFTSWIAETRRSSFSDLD
0.0383
